Measured attribute: melting point

Q: Which value of melting point has been reported for CCc1ccc(-c2c(OC)nnc(Cl)c2-c2c(F)cc(F)cc2F)cc1 [I.o. 199] in the records?
Result: 109 to 112 °C

Q: Reported melting point for Oc1nnc(O)c(-c2c(F)cc(F)cc2F)c1-c1ccc(Cl)cc1 [I.k.196] : what is it?
Result: 158 to 164 °C

Q: // lookup melting point for COc1nnc(Cl)c(-c2c(F)cccc2Cl)c1-c1ccc(Cl)cc1 [I.k.079]
Result: 137 to 141 °C

Cited source: patent US20100022526A1
